GI50 reference
Tested on: IGROV-1
Experiment: NCI tumour cell line growth inhibition, 48 h
Active and inactive are the calls of the source. Cut-off read from the data, not from the text of the source: active = GI50 up to about 1.1 µM and inactive = higher.
parameter.measured: GI50

{"molecule": "O=C(O)C1SCCS1", "assay.value": "> 100 µM (inactive)"}
{"molecule": "COc1cc(/C=C/C(=O)OCC23CC[C@@]4(C(=O)O)CCC(C)[C@H](C)C4C2=CCC2[C@@]4(C)CC[C@H](O)C(C)(C)C4CC[C@]23C)ccc1O (some centres not stated)", "assay.value": "14.5 µM (inactive)"}
{"molecule": "C/C(=C\\c1ccccn1)c1ccccn1", "assay.value": "> 100 µM (inactive)"}
{"molecule": "O=c1c2ncn(C3CCCO3)c2n(-c2ccccc2)c(=S)n1-c1ccccc1 (configuration not stated)", "assay.value": "> 100 µM (inactive)"}
{"molecule": "C=CCn1c(-c2ccccc2)cs/c1=N\\C(P(=O)(O)O)P(=O)(O)O", "assay.value": "> 100 µM (inactive)"}
{"molecule": "Cc1ccc(/C=N/Nc2ncccn2)s1", "assay.value": "> 100 µM (inactive)"}
{"molecule": "COc1ccccc1NC(=O)CC(=O)N/N=C/c1ccc(N(CCC#N)S(=O)(=O)c2ccccc2)cc1", "assay.value": "> 100 µM (inactive)"}
{"molecule": "COc1ccc(C2SCC(=O)N2c2ccc(-n3c(-c4ccccc4)nc4ccccc4c3=O)cc2)cc1OC (configuration not stated)", "assay.value": "> 100 µM (inactive)"}
{"molecule": "CC1=C(C(=O)N[C@@H](CC(C)C)C(=O)O)N2C(=O)[C@@H](NC(=O)[C@@H](N)Cc3ccccc3)[C@H]2SC1", "assay.value": "> 100 µM (inactive)"}
{"molecule": "FC1=C2C3CCC(C3)C2C1(F)F (configuration not stated)", "assay.value": "> 100 µM (inactive)"}
{"molecule": "O=C1CC(c2ccccc2Cl)C2(C(=O)NC(=S)NC2=O)C(c2ccccc2Cl)C1 (configuration not stated)", "assay.value": "25.9 µM (inactive)"}
{"molecule": "Cc1cccc2nc(-c3ccccc3)cc(=O)n12", "assay.value": "49.8 µM (inactive)"}
{"molecule": "COc1ccc(/C=C2\\Sc3nnc(C)n3N=C2c2cc(F)c(Cl)cc2Cl)cc1OC", "assay.value": "16 µM (inactive)"}
{"molecule": "C1CCSCCCCSCCCCSCCCCSC1", "assay.value": "> 100 µM (inactive)"}
{"molecule": "CCN(CC(O)COc1ccc2c(c1)[n+]([O-])nc(N)[n+]2[O-])C(C)=O (configuration not stated)", "assay.value": "> 100 µM (inactive)"}
{"molecule": "CCOC(=O)c1nc2ccccc2nc1Nc1ccc(F)cc1", "assay.value": "13.7 µM (inactive)"}
{"molecule": "Cc1cc(Nc2ccc(S(=O)(=O)O)c3cc(S(=O)(=O)O)cc(S(=O)(=O)O)c23)c2ccccc2n1", "assay.value": "> 100 µM (inactive)"}
